The following compounds each carry a recorded Ki for mu opioid receptor (Rattus norvegicus, UniProt P33535).
Field: numeric (nM). Do not append units.

| COMPOUND | EXPERIMENTAL_TARGET | METRIC | RECORDED_VALUE |
| --- | --- | --- | --- |
| COc1ccc(CC(N)C(=O)N2Cc3ccccc3CC2c2nc(-c3ccccc3)c(C)[nH]2)cc1 (stereo not shown) [Cmpd 154] | mu opioid receptor (Rattus norvegicus, UniProt P33535) | Ki | 10000 |
| CC(N)(Cc1ccc(OCc2ccccc2)cc1)C(=O)N1CCCCC1c1nc(-c2ccccc2)c[nH]1 (stereo not shown) [Cmpd 26] | mu opioid receptor (Rattus norvegicus, UniProt P33535) | Ki | 87 |
| COc1cc(C)c(CC(N)C(=O)N2Cc3ccccc3CC2c2nc(-c3ccccc3)c[nH]2)c(C)c1 (stereo not shown) [Cmpd 147] | mu opioid receptor (Rattus norvegicus, UniProt P33535) | Ki | 150 |

From here, focus on the item given below.
mu opioid receptor (Rattus norvegicus, UniProt P33535) Ki of N[C@@H](Cc1ccc(C(=O)O)cc1)C(=O)N1CCCC[C@H]1c1nc(-c2ccccc2)c[nH]1 [Cmpd 9] is 26.8

* * *

target: mu opioid receptor (Rattus norvegicus); construct: from tissue; host or cells: rat forebrain homogenate (Wistar rat); assay: Rat Brain mu Opioid Receptor Binding Assay; details: rat forebrain membranes, ~0.8 nM [3H]DAMGO, 25° C., 2.5 h; read-out: μ-opioid binding (Ki)
METRIC: Ki (nM)
Please state the figure in nM; there is no need to write the unit.

Entry under test: N[C@@H](Cc1ccc(C(=O)Nc2ccccc2)cc1)C(=O)N1Cc2ccccc2C[C@H]1c1nc(-c2ccccc2)c[nH]1 . Its Ki was 293

* * *

Consider the following log10 of Ki values measured on mu opioid receptor (Rattus norvegicus).
Recorded Ki (log10, nM)

Reference set, count: 5
| SMILES | EXPERIMENTAL_TARGET | log10 of Ki |
| --- | --- | --- |
| CNC(=O)c1ccc(C[C@H](N)C(=O)N2CCCC[C@H]2c2nc(-c3ccccc3)c[nH]2)cc1 | mu opioid receptor (Rattus norvegicus) | -0.66 |
| Cc1[nH]c([C@@H]2Cc3ccccc3CN2C(=O)[C@@H](N)Cc2ccc(F)cc2)nc1-c1ccccc1 | mu opioid receptor (Rattus norvegicus) | 4.11 |
| N[C@@H](Cc1ccc(S(N)(=O)=O)cc1)C(=O)N1Cc2ccccc2C[C@H]1c1nc(-c2ccccc2)c[nH]1 | mu opioid receptor (Rattus norvegicus) | 2.77 |
| Cc1cc(O)cc(C)c1C[C@H](N)C(=O)N1Cc2ccccc2C[C@H]1c1nc(-c2ccccc2)c(Cl)[nH]1 | mu opioid receptor (Rattus norvegicus) | -0.74 |
| CN[C@@H](Cc1ccc(OC(=O)C(C)(C)C)cc1)C(=O)N1Cc2ccccc2C[C@H]1c1nc(-c2ccccc2)c[nH]1 | mu opioid receptor (Rattus norvegicus) | 2.33 |

In the following, a different compound is considered.
The reported log10 of Ki value, mu opioid receptor (Rattus norvegicus), for CC(=O)c1ccc(C[C@H](N)C(=O)N2CCCC[C@H]2c2nc(-c3ccccc3)c[nH]2)cc1 reads 1.37

* * *

Collected pKi values appear next to each entry.
target: mu opioid receptor (Rattus norvegicus, UniProt P33535)
Sequence (P33535 whole entry): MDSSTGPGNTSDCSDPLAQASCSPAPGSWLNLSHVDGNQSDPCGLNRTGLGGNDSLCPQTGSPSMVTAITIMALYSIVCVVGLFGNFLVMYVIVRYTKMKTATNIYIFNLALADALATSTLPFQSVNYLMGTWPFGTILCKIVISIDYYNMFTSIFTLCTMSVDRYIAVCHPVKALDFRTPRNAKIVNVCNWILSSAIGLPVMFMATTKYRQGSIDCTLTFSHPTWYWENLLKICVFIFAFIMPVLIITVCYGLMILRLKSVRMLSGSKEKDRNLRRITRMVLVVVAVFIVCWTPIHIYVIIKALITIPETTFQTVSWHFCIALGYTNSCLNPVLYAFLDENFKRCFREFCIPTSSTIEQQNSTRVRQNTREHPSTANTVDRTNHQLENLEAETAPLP
# log scale: pKi equals minus log10 of the concentration in mol/L

Answered examples (5):
| MOLECULE | RECORDED_VALUE |
| --- | --- |
| Nc1cc(C[C@H](N)C(=O)N2CCCC[C@H]2c2nc(-c3ccccc3)c[nH]2)ccc1O | 6.94 |
| Cc1cc(O)cc(C)c1C[C@H](N)C(=O)N1CCCC[C@@H]1c1nc(-c2ccccc2)c[nH]1 | 9.82 |
| N[C@@H](Cc1cccc(O)c1)C(=O)N1CCCC[C@H]1c1nc(-c2ccccc2)c[nH]1 | 7.80 |
| NC(=O)c1cccc(CC(N)C(=O)N2CCCCC2c2nc(-c3ccccc3)c[nH]2)c1 (stereo not drawn) | 7.05 |
| N[C@@H](Cc1ccc(C(=O)Nc2ccccc2)cc1)C(=O)N1CCCC[C@H]1c1nc(-c2ccccc2)c[nH]1 | 7.56 |

The molecule O=C([C@H](Cc1ccc(O)cc1)NCc1ccccc1)N1Cc2ccccc2C[C@@H]1c1nc(-c2ccccc2)c[nH]1 on mu opioid receptor (Rattus norvegicus, UniProt P33535): pKi was 6.48
